- EXPERIMENTAL_SYSTEM: human TYK2 (JH2domain-pseudokinase) (Homo sapiens (Human))
- Sequence (P29597 556-888): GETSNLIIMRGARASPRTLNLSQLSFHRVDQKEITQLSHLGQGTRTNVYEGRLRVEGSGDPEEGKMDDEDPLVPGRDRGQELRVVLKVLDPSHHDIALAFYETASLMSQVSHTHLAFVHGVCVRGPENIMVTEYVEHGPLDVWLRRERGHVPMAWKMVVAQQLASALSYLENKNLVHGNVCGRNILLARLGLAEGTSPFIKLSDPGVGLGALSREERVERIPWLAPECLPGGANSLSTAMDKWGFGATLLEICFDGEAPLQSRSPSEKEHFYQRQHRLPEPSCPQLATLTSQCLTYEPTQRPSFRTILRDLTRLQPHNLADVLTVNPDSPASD
- PROTOCOL_DETAILS: TYK2 JH2 Domain Binding Assay (KINOMEscan, DiscoveRx)
- COND: 11-point dilution, duplicate
pKd: −log10 of the molar value.
READOUT_LABEL: pKd

Sample answers from the record:
CN(c1cc(Cl)ccc1Nc1cc(Nc2cccc(C#N)n2)nc2[nH]c(C(F)F)nc12)S(C)(=O)=O [I-94]	9.00 to 9.30
COc1c(Nc2cc(NC(=O)C3CC3)nc3[nH]c(C)nc23)cccc1-c1cnn(C)c1 [I-107]	8.00 to 9.00
Cc1nc2c(Nc3ccc([C@H]4CCC(C)(C)CO4)cc3S(C)(=O)=O)cc(Nc3cnc(C)c(C)n3)nc2[nH]1 [I-609]	9.30 to 10.00
CS(=O)(=O)c1ccccc1Nc1cc(NC(=O)C2CC2)nc2[nH]c(C(F)F)nc12 [I-159]	9.30 to 10.00
CCOc1ccc(Nc2cc(Nc3ccccc3S(C)(=O)=O)c3nc(C)[nH]c3n2)nc1C#N [I-525]	> 10.00
Cc1nc2c(Nc3ccc(-c4nn(C)cc4C)cc3S(C)(=O)=O)cc(NC(=O)[C@@H]3C[C@@H]3F)nc2[nH]1 [I-262]	9.30 to 10.00
COc1c(Nc2cc(Nc3ccc(C)nn3)nc3[nH]cnc23)cccc1-c1ncn(C)n1 [I-4]	9.30 to 10.00

Moving on to the next compound.
The compound identified as Cc1nc2c(Nc3ccc(C4=NC(C)(C)CS4)cc3S(C)(=O)=O)cc(NC(=O)[C@@H]3CC3(F)F)nc2[nH]1 [I-485] registered its pKd at < 8.00

Data credit: patent US10647713B2
